tested on: Mus musculus; assay: Maximum inactive dose(MID) for decrease in norepinephrine (NE) / epinephrine(E) was measured in mice (po); type: functional
Entries and their log10 of MID values follow.
Use the decimal logarithm of MID (mg/kg).

| Smiles Structure | Endpoint Value |
| --- | --- |
| Clc1cccc2c1CNCC2 | 0.40 |
| Clc1cc(Cl)c2c(c1Cl)CNCC2 | 2.00 |
| Clc1cc2c(c(Cl)c1Cl)CNCC2 | 1.70 |
| Clc1c(Cl)c(Cl)c2c(c1Cl)CCNC2 | 1.40 |
| Clc1ccc2c(c1)CNCC2 | 0.88 |

Sample "Clc1ccc2c(c1Cl)CNCC2" — what was its log10 of MID?
0.40
